test system: Abutilon theophrasti (ABUTH); experiment: B2 Post-Emergence Efficacy - Test 2; assay type: in vivo; conditions: 250 g/Ha, 15 days after application, 0-100 scale
Herbicidal activity ABUTH values by entry
Provide a numeric answer; units are not to be included.

Cc1nn(C)c(=O)c(-c2c(F)ccc(Cl)c2CCc2ccccc2C(F)(F)F)c1O 90
Cc1nn(C)c(=O)c(-c2c(F)ccc(Cl)c2CCc2ccc(F)cc2)c1O 90
Cc1nn(C)c(=O)c(-c2c(F)ccc(Cl)c2CCc2ccc(Cl)cc2)c1OC(=O)C(C)C 100

Problem: Dear colleague, I am looking for the recorded Herbicidal activity ABUTH of the following molecule: `Cc1nn(C)c(=O)c(-c2c(F)ccc(Cl)c2CCc2ccc(C#N)cc2)c1O`
Solution: 100

Problem: Likewise for `Cc1nn(C)c(=O)c(-c2c(F)ccc(Cl)c2CCc2ccc(F)cc2)c1OC(=O)C(C)C` ?
Solution: 100

Problem: Likewise for `Cc1nn(C)c(=O)c(-c2c(F)ccc(Cl)c2CCc2ccc(C(F)(F)F)nc2)c1O` ?
Solution: 100

###

Herbicidal activity on a 0-100 scale, SORVU values by entry
test system: Sorghum bicolour (SORVU); experiment: B2 Post-Emergence Efficacy - Test 2; assay type: in vivo; settings: 125 g/Ha, 15 days after application, 0=no damage, 100=total kill
Provide a numeric answer; units are not to be included.

Some solved entries appear below for comparison.
Cc1nn(C)c(=O)c(-c2c(F)ccc(Cl)c2CCc2ccccc2C(F)(F)F)c1O 80
Cc1nn(C)c(=O)c(-c2c(F)ccc(Cl)c2CCc2ccc(Cl)cc2)c1OC(=O)C(C)C 90
Cc1nn(C)c(=O)c(-c2c(F)ccc(Cl)c2CCc2ccc(F)cc2)c1OC(=O)C(C)C 70
Cc1nn(C)c(=O)c(-c2c(F)ccc(Cl)c2CCc2ccc(F)cc2)c1O 70
Cc1nn(C)c(=O)c(-c2c(F)ccc(Cl)c2CCc2ccc(C#N)cc2)c1O 80

Proceed to the following item.
Problem: Herbicidal activity on a 0-100 scale, SORVU of `Cc1nn(C)c(=O)c(-c2c(F)ccc(Cl)c2CCc2ccc(C(F)(F)F)nc2)c1O` on Sorghum bicolour (SORVU)?
Solution: 90

###

test system: Alopecurus myosuroides (ALOMY); assay: B2 Post-Emergence Efficacy - Test 2; format: in vivo; conditions: 500 g/Ha, 15 days after application, 0-100 scale
Herbicidal activity ALOMY values by entry
Provide a numeric answer; units are not to be included.

Some solved entries appear below for comparison.
molecule	subject of test	property label	reported value
Cc1nn(C)c(=O)c(-c2c(F)ccc(Cl)c2CCc2ccc(F)cc2)c1O [Compound 1.048]	Alopecurus myosuroides (ALOMY)	Herbicidal activity ALOMY	90
Cc1nn(C)c(=O)c(-c2c(F)ccc(Cl)c2CCc2ccc(C#N)cc2)c1O [Compound 1.024]	Alopecurus myosuroides (ALOMY)	Herbicidal activity ALOMY	70
Cc1nn(C)c(=O)c(-c2c(F)ccc(Cl)c2CCc2ccc(Cl)cc2)c1OC(=O)C(C)C [Compound 1.089]	Alopecurus myosuroides (ALOMY)	Herbicidal activity ALOMY	90
Cc1nn(C)c(=O)c(-c2c(F)ccc(Cl)c2CCc2ccc(F)cc2)c1OC(=O)C(C)C [Compound 1.125]	Alopecurus myosuroides (ALOMY)	Herbicidal activity ALOMY	40
Cc1nn(C)c(=O)c(-c2c(F)ccc(Cl)c2CCc2ccccc2C(F)(F)F)c1O [Compound 1.066]	Alopecurus myosuroides (ALOMY)	Herbicidal activity ALOMY	90

Proceed to the following item.
Problem: Dear colleague, I am looking for the recorded Herbicidal activity ALOMY of the following molecule: Cc1nn(C)c(=O)c(-c2c(F)ccc(Cl)c2CCc2ccc(C(F)(F)F)nc2)c1O [Compound 1.042]
Solution: 90
